test_name: Safety index, ratio of EC100 for test compound to EC100 for tacrine for cytotoxicity against human HepG2 cell assessed as safe dose that maintains 100% cell viability incubated for 72 hrs by MTT assay
Assay type: cell-based
condition_parameters: HepG2 cells
readout_name: selectivity ratio at 72 h
Write the value as a bare number.

Record Cc1ccc(-n2cc(COc3ccc(/C=N/Nc4c5c(nc6ccccc46)CCCC5)cc3)nn2)cc1.Cl , field selectivity ratio at 72 h: 116

Consider COc1ccc(-n2cc(COc3ccc(/C=N/Nc4c5c(nc6ccccc46)CCCC5)cc3)nn2)cc1.Cl . Its measured selectivity ratio at 72 h is 27

selectivity ratio at 72 h for Cl.Clc1ccc(-n2cc(COc3ccc(/C=N/Nc4c5c(nc6ccccc46)CCCC5)cc3)nn2)cc1 is 72

Reported selectivity ratio at 72 h ( Cl.O=C(O)c1ccc(-n2cc(COc3ccc(/C=N/Nc4c5c(nc6ccccc46)CCCC5)cc3)nn2)cc1 ) = 43

Entry source: ChEMBL document CHEMBL4339188
